Test system: ATP;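 note: ATP exposure 15 min at 22 °C before imaging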
Assay: switch fluorescence ratio, 500 uM ATP over buffer (Cy3 cluster intensity, sum of 5 cycles each) (fold (ratio)); higher = stronger signal-on switching upon ATP binding; sequences stand for … in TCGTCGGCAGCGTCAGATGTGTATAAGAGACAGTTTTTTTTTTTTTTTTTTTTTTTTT…TC
Conditions: aptamer strand: ATP DNA aptamer (quencher-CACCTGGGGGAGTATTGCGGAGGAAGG + anchor), 100 nM annealed; ATP concentration: 500 uM
recorded metric: switch fluorescence ratio
Returns: the value as a bare number; no unit string appended.

# example entries with known answers
>  <seq>
GATAAGAGCC

>  <switch fluorescence ratio>
1.01

$$$$
>  <seq>
AGGTATTTGA

>  <switch fluorescence ratio>
0.984

$$$$
>  <seq>
GGGCTAGGCA

>  <switch fluorescence ratio>
1.02

$$$$
>  <seq>
CGGGTACATG

>  <switch fluorescence ratio>
1.03

$$$$
>  <seq>
CCTGTTCCGA

>  <switch fluorescence ratio>
1.19

$$$$

# evaluate next
Q: # lookup: switch fluorescence ratio of `TCTTTGCCGT`
Ans: 0.982

====

Tested on: ATP;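 note: ATP exposure 15 min at 22 °C before imaging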
Assay: switch fluorescence ratio, 500 uM ATP over buffer (Cy3 cluster intensity, sum of 5 cycles each) (fold (ratio)); higher = stronger signal-on switching upon ATP binding; sequences stand for … in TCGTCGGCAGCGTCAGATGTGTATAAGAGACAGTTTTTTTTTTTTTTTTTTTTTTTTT…TC
Settings: aptamer strand: ATP DNA aptamer (quencher-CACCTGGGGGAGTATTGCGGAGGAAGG + anchor), 100 nM annealed; ATP concentration: 500 uM
Listed here are sequences together with their documented switch fluorescence ratio.

# example entries with known answers
>  <seq>
ACACCCTTAT

>  <switch fluorescence ratio>
1.13

$$$$
>  <seq>
GGGTGGGCTT

>  <switch fluorescence ratio>
0.997

$$$$
>  <seq>
CGTTGCACCT

>  <switch fluorescence ratio>
0.952

$$$$
>  <seq>
CTGGATTAAT

>  <switch fluorescence ratio>
1.02

$$$$
>  <seq>
CATTAGCAGG

>  <switch fluorescence ratio>
1.08

$$$$

Q: # lookup: switch fluorescence ratio of `CGGGACAAGT`
Ans: 0.982

Q: # lookup: switch fluorescence ratio of `AAATCGTATG`
Ans: 0.974

====

System: ATP;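 note: ATP exposure 15 min at 22 °C before imaging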
Test: switch fluorescence ratio, 500 uM ATP over buffer (Cy3 cluster intensity, sum of 5 cycles each) (fold (ratio)); higher = stronger signal-on switching upon ATP binding; sequences stand for … in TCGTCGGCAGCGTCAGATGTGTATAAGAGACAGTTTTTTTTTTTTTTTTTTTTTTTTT…TC
Details: aptamer strand: ATP DNA aptamer (quencher-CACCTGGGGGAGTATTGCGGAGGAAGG + anchor), 100 nM annealed; ATP concentration: 500 uM
Listed here are sequences together with their documented switch fluorescence ratio.
Returns: the value as a bare number; no unit string appended.

# example entries with known answers
>  <seq>
TGTAATGGTT

>  <switch fluorescence ratio>
1

$$$$
>  <seq>
TGCATTGGAG

>  <switch fluorescence ratio>
1.01

$$$$
>  <seq>
GAGGGAGGTC

>  <switch fluorescence ratio>
0.968

$$$$
>  <seq>
CGTAGGATTG

>  <switch fluorescence ratio>
1.02

$$$$
>  <seq>
TCTTGGAGCT

>  <switch fluorescence ratio>
1.01

$$$$

Q: Field: switch fluorescence ratio (ATP). Entry: `AACGTTCCTG`
Ans: 1.35

Q: Field: switch fluorescence ratio (ATP). Entry: `GAGAGTTATT`
Ans: 0.988

Q: Field: switch fluorescence ratio (ATP). Entry: `CTAATTTACA`
Ans: 1.08

Q: Field: switch fluorescence ratio (ATP). Entry: `GGTTTGAGTA`
Ans: 1.02

Q: Field: switch fluorescence ratio (ATP). Entry: `AGCATGGTTT`
Ans: 1.02
